tested on: MCF-7; test: MTT cytotoxicity test, MCF-7; type: cell-based, human; settings: breast cancer cell line, 72 hours

compound	IC50 MCF-7
C[C@]1(O)C[C@H]2OC(=O)[C@]1(C)C[C@H]2[C@@]1(O)[C@H](O)C[C@H]2[C@@H]3C[C@H](Cl)[C@]4(O)[C@@H](O)C=CC(=O)[C@]4(C)[C@H]3CC[C@@]21C [Compound 25, Tubonolide A]	12.03 µg/mL
CC1=C(C)C(=O)O[C@@H]([C@@H](C)[C@@]2(O)CC[C@H]3[C@@H]4C[C@H]5O[C@]56[C@@H](O)C=CC(=O)[C@]6(C)[C@H]4CC[C@@]32C)C1 [Compound 14, Tubocapsanolide F]	1.98 µg/mL
CC1=C(C)C(=O)O[C@@H]([C@@H](C)[C@@]2(O)CC[C@H]3[C@@H]4C[C@H](O)[C@]5(O)[C@@H](O)C=CC(=O)[C@]5(C)[C@H]4CC[C@@]32C)C1 [Compound 13, Tubocapsanolide D]	>20 µg/mL
CC1=C(C)C(=O)O[C@@H]([C@@H](C)[C@@]23O[C@@H]2C[C@H]2[C@@H]4C[C@H]5O[C@]56[C@@H](O)C=CC(=O)[C@]6(C)[C@H]4CC[C@@]23C)C1 [Compound 8, Tubocapsanolide A]	1.47 µg/mL
